assay: Neuroprotective effect against rat N27 cells assessed as reduction of BSO-induced increase in MDA level at 0.5 uM after 24 hrs by thiobarbituric acid reaction method relative to control; assay type: functional; design: scale not given: the % may be the effect or the level left
Observation type: Activity (%)
Number in %, nothing else.

{"Smi": "COc1cc(/C=C/C(=O)CC(=O)/C=C/c2ccc(OC(=O)[C@@H](N)C(C)C)c(OC)c2)ccc1OC(=O)[C@@H](N)C(C)C", "Units label": "%", "Activity": 30}
{"Smi": "COc1cc(/C=C/C(=O)CC(=O)/C=C/c2ccc(OC(=O)/C=C/C=C/c3ccc(O)c(O)c3)c(OC)c2)ccc1OC(=O)/C=C/C=C/c1ccc(O)c(O)c1", "Units label": "%", "Activity": 50}
{"Smi": "COc1cc(/C=C/C(=O)CC(=O)/C=C/c2ccc(OC(=O)[C@@H](N)CCC(=O)O)c(OC)c2)ccc1OC(=O)[C@@H](N)CCC(=O)O", "Units label": "%", "Activity": 50}

Attention now turns to another entry.
**Query** Param item = "COc1cc(/C=C/C(=O)CC(=O)/C=C/c2ccc(O)c(OC)c2)ccc1O" ; retrieve measured Activity.
**Result** 40

Values compiled from ChEMBL document CHEMBL1156964.
